assayProcedure: Cell Viability qHTS for small molecule stabilizers of the endoplasmic reticulum resident proteome (AID 1508629);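 further: human SH-SY5Y neuroblastoma cells carrying the GLuc-SERCaMP reporter; compound exposure about 46 h in total before the viability read; on the % scale 0 is the no-effect control and ±100 the full control effect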
runConditions: cell viability counter-screen, 100 nM thapsigargin for final 4 h
Inconclusive results are not listed. The source made the active and inactive calls. The call rests on the fitted dose curve; in most records, active means well fitted cell-killing curve with a large enough effect; inconclusive means small, poorly fitted or top-dose-only effect, or effect the other way; inactive means no such curve, though single readings can be large or run the other way.
propertyName: max response

In [3]: df
Out[3]:
                                   compound      endpointvalue
0  O=C1NCN(c2ccccc2)C12CCN(CCCOc1ccc(F)cc1)CC2  -6.39% (inactive)
1                        NC(=O)OCCCc1ccccc1   1.15% (inactive)
2  CN1C2CCC(C)(C)C1CC(OC(=O)C(O)(c1cccs1)c1cccs1)C2 (stereo not given)  -12.1% (inactive)
3                c1cc2c(c(N3CCNCC3)c1)OCCO2   5.26% (inactive)
4  CC(C)=CCN1CC[C@@]2(C)c3cc(O)ccc3C[C@@H]1[C@@H]2C  -7.58% (inactive)

---

assayProcedure: Primary qHTS to identify inhibitors of SARS-CoV-2 cell entry (AID 1645846); further: nearly all actives have a fitted effect of over 45% in size; further: potency means the concentration at half of the fitted maximal effect
runConditions: SARS-CoV-2 pseudovirus cell entry assay, luminescence; series mostly up to 57.1 µM
Inconclusive results are not listed. Activity calls are given as the source filed them. Calls come from the whole dose curve.
propertyName: Potency

In [3]: df
Out[3]:
                                    molecule     endpointvalue
 0  Cc1c(F)cc2c(=O)c(C(=O)O)cn3c2c1CCC3C (stereo unspecified)          inactive
 1       N[C@@H](Cc1c[nH]c2ccc(O)cc12)C(=O)O          inactive
 2  C=CC[N+]1([C@H]2C[C@H]3[C@@H]4CC[C@H]5C[C@H](OC(C)=O)[C@@H](N6CCCCC6)C[C@]5(C)[C@H]4CC[C@]3(C)[C@H]2OC(=O)CC)CCCCC1          inactive
 3              O=C(Oc1cccc2cccnc12)c1ccccc1  8.91 µM (active)
 4                               OCc1ccccc1O          inactive
 5  CC(=O)Oc1ccc(C(c2ccc(OC(C)=O)cc2)c2ccccn2)cc1          inactive
 6  CC(C)COCC(CN(Cc1ccccc1)c1ccccc1)N1CCCC1 (stereo unspecified)  14.1 µM (active)
 7  CC(=O)OCC(=O)Nc1cc(C#N)cc(NC(=O)COC(C)=O)c1Cl          inactive
 8                         CCOc1ccccc1C(N)=O          inactive
 9  CC1=C(CC(=O)O)c2cc(F)ccc2/C1=C\c1ccc(S(C)=O)cc1 (stereo unspecified)          inactive
10    CN(C)[C@@H](CCOc1cccc2ccccc12)c1ccccc1    10 µM (active)

---

runConditions: Ebola virus entry assay, ratio channel
Activity calls are given as the source filed them.

compound	AC50
COc1ccccc1N1CCN(CC(O)COc2cccc3ccccc23)CC1 (stereo not given)	12.6 µM (active)
CCOCCOC(=O)/C=C/c1ccc(OC)cc1	inactive
COc1ccc2cc3[n+](cc2c1OC)CCc1cc2c(cc1-3)OCO2	inactive
Nc1ccc(S(=O)(=O)Nc2nccs2)cc1	inactive
Cc1cccc(C)c1NC(=O)C(C)N (stereo not given)	inactive
c1ccc2nc(N3CCNCC3)ccc2c1	35.5 µM (active)
CCOC(=O)c1ccc(OC(=O)CCCCCN=C(N)N)cc1	inactive
C1CCC(C(CC2CCCCN2)C2CCCCC2)CC1 (stereo not given)	0.891 µM (active)
NS(=O)(=O)c1cc2c(cc1Cl)NCNS2(=O)=O	inactive
O=C(Nc1ccc([N+](=O)[O-])cc1)Nc1ccc([N+](=O)[O-])cc1	inactive
O=S1(=O)OC(c2ccc(O)cc2)(c2ccc(O)cc2)c2ccccc21	inactive
C[C@H]1O[C@@H](O[C@H]2CC[C@@]3(C)[C@H](CC[C@@H]4[C@@H]3C[C@@H](O)[C@]3(C)[C@@H](C5=CC(=O)OC5)CC[C@]43O)C2)C[C@H](O)[C@@H]1O[C@H]1C[C@H](O)[C@H](O[C@H]2C[C@H](O)[C@H](O[C@@H]3O[C@H](CO)[C@@H](O)[C@H](O)[C@H]3O)[C@@H](C)O2)[C@@H](C)O1	0.891 µM (active)
N[C@H]1CN(c2c(F)cc3c(=O)c(C(=O)O)cn(C4C[C@@H]4F)c3c2Cl)CC12CC2 (stereo not given in full)	inactive
CC[C@H]1CN2CCc3cc(OC)c(OC)cc3[C@@H]2C[C@@H]1C[C@H]1NCCc2cc(OC)c(OC)cc21	17.8 µM (active)
C[C@]12CC[C@H](O)CC1=CC[C@@H]1[C@@H]2CC[C@]2(C)C(=O)CC[C@@H]12	inactive
O=C(O)CCC(=O)OC[C@@H](NC(=O)C(Cl)Cl)[C@H](O)c1ccc([N+](=O)[O-])cc1	inactive
O=C(CCCCCCCCC#CI)Oc1ccccc1	inactive
O=C(CCN1CCN(CCO)CC1)N1c2ccccc2Sc2ccc(C(F)(F)F)cc21	inactive
CCCCCCCCCCCCCCCC[N+](C)(C)Cc1ccccc1	22.4 µM (active)
COc1ccc(-c2cc(C(F)F)nn2-c2ccc(S(N)(=O)=O)cc2)cc1F	14.1 µM (active)
